Each entry below carries its recorded one-hybrid fitness for binding parS DNA.
B1: Caulobacter ParB omega fusion; a variant is named by its letters at X, in order, B8GW30 (parent)
chain: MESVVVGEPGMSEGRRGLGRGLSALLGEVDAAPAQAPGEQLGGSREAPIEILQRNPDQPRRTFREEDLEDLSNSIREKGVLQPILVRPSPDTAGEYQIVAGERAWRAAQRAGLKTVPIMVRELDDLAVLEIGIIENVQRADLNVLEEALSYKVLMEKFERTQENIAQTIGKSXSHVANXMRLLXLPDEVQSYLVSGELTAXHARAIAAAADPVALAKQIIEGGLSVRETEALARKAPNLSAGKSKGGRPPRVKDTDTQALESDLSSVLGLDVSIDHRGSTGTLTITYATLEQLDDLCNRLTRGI

Variants of: B1
test: one-hybrid fitness for binding parS DNA (scaled: cognate 1, non-cognate 0); higher = stronger binding
condition_set: with parS DNA site
In all, about 81,000 sequences were measured (“one-hybrid fitness for binding parS DNA”: median about -0.17, highest 2% from about 0.51 on). This excerpt belongs to a sample that is enriched for the highest values.

Record excerpt, results attached:
variant | one-hybrid fitness for binding parS DNA
RYVP | ≤ 0.2
RNRH | ≤ 0.2
RNLK | ≤ 0.2
RNYD | ≤ 0.2

Given item `RYKQ` , the value recorded as its one-hybrid fitness for binding parS DNA is ≤ 0.2

For reference, reported one-hybrid fitness for binding parS DNA for `RYVD` stands at ≤ 0.2

// `RPHG` : one-hybrid fitness for binding parS DNA value = ≤ 0.2

The measured one-hybrid fitness for binding parS DNA associated with `RNYC` reads 0.719

Item: `ALRC` | one-hybrid fitness for binding parS DNA: ≤ 0.2

Reported one-hybrid fitness for binding parS DNA of `RYKF` : 0.257

one-hybrid fitness for binding parS DNA reported for this variant `RIHY` : 0.461

Briefly, one-hybrid fitness for binding parS DNA measured for `RNLC` : 0.736

Looking up `RNLR` , I see its one-hybrid fitness for binding parS DNA listed as ≤ 0.2
